- System: human breast cancer (MCF-7) cells
- Protocol description: MTT assay for cytotoxic activity
- Assay type: cell-based
- Condition label: MCF-7 cells, read-out: IC50 (Mean ± SEM), cytotoxic activity
Observation type: IC50 (µM)
One number for each entry, in µM.

The reported value for O=C(Cc1ccccc1)NC(=S)NNC(=O)C(=Cc1cccs1)NC(=O)c1ccccc1 in terms of IC50 is 11.6

* * *

- Tested on: Aspergillus flavus ATCC 46283
- Protocol description: Agar well diffusion, inhibition zone
- Assay type: cell-based
- Design: dose or concentration left out as unconfirmed
- Condition label: ATCC46283, A. flavus ATCC 46283, NA = No Activity, read-out: Mean Diameter of Inhibition Zone (Mean ± SEM)
For each record, write down the corresponding zone of inhibition.
One number for each entry, in mm.

Examples with answers:
O=C(Cc1ccccc1)NC(=S)NNC(=O)C(=Cc1ccccc1)NC(=O)c1ccccc1
24
O=C(Cc1ccccc1)NC(=S)N1NC(=O)C(=Cc2ccccc2)N=C1c1ccccc1
18
Clc1ccccc1C(c1ccccc1)(c1ccccc1)n1ccnc1 [Clotrimazole, reference compound]
25
N#CCc1nnc(NC(=O)Cc2ccccc2)s1
6
O=c1cc2nc(Cc3ccccc3)[nH]c(=S)n2[nH]1
15
O=C(Cc1ccccc1)NC(=S)NNC(=O)C(=Cc1cccs1)NC(=O)c1ccccc1
25

Please state zone of inhibition for every compound in the list that follows.
1. N#CCC(=O)NNC(=S)NC(=O)Cc1ccccc1
2. O=C(Cc1ccccc1)NC(=S)NN1C(=O)C(=Cc2ccccc2)N=C1c1ccccc1
3. O=C(Cc1ccccc1)Nc1nnc(C(=Cc2cccs2)NC(=O)c2ccccc2)s1

OUT:
[27, 9, 18]
